# Tested on: Trypanosoma brucei
# TEST_NAME: Trypanocidal activity against Trypanosoma brucei, exposure of parasites to compound prior to injection into mice at 10 e-4 M concentration in presence of light
# Assay type: functional
# Set-up: unit: days

{"columns": ["SMILES_REPRESENTATION", "Activity"],
 "data": [
  ["[N-]=[N+]=Nc1ccc2nc3ccccc3c(N)c2c1", 30],
  ["Nc1ccc2c(N)c3ccccc3nc2c1", 30],
  ["C[n+]1c2ccccc2cc2ccc(N=[N+]=[N-])cc21.[Cl-]", 30],
  ["[N-]=[N+]=Nc1c2ccccc2nc2ccccc12", 30],
  ["[N-]=[N+]=Nc1ccc2cc3ccc(N)cc3nc2c1", 30],
  ["C[n+]1c2ccccc2cc2cc(N)ccc21.[Cl-]", 30],
  ["C[n+]1c2ccccc2cc2c(N=[N+]=[N-])cccc21.[Cl-]", 4.8],
  ["C[n+]1c2ccccc2c(N)c2ccccc21.[Cl-]", 30],
  ["[N-]=[N+]=Nc1ccc(Nc2c3ccccc3nc3ccccc23)cc1", 30],
  ["[N-]=[N+]=Nc1ccc2cc3ccc(N=[N+]=[N-])cc3nc2c1", 5.5],
  ["C[n+]1c2ccccc2c(N=[N+]=[N-])c2ccccc21.[Cl-]", 30],
  ["C[n+]1c2ccccc2cc2c(N)cccc21.[Cl-]", 30]
]}
